Can you tell me SK-Br-3 pHER3 IC50 for the items I'm about to list?
experimental-system: Human HER3, endogenous, on human cancer cell lines (SK-Br-3, MCF7, BT-474) (human, UniProt P21860 20-1342)
Sequence (P21860 20-1342): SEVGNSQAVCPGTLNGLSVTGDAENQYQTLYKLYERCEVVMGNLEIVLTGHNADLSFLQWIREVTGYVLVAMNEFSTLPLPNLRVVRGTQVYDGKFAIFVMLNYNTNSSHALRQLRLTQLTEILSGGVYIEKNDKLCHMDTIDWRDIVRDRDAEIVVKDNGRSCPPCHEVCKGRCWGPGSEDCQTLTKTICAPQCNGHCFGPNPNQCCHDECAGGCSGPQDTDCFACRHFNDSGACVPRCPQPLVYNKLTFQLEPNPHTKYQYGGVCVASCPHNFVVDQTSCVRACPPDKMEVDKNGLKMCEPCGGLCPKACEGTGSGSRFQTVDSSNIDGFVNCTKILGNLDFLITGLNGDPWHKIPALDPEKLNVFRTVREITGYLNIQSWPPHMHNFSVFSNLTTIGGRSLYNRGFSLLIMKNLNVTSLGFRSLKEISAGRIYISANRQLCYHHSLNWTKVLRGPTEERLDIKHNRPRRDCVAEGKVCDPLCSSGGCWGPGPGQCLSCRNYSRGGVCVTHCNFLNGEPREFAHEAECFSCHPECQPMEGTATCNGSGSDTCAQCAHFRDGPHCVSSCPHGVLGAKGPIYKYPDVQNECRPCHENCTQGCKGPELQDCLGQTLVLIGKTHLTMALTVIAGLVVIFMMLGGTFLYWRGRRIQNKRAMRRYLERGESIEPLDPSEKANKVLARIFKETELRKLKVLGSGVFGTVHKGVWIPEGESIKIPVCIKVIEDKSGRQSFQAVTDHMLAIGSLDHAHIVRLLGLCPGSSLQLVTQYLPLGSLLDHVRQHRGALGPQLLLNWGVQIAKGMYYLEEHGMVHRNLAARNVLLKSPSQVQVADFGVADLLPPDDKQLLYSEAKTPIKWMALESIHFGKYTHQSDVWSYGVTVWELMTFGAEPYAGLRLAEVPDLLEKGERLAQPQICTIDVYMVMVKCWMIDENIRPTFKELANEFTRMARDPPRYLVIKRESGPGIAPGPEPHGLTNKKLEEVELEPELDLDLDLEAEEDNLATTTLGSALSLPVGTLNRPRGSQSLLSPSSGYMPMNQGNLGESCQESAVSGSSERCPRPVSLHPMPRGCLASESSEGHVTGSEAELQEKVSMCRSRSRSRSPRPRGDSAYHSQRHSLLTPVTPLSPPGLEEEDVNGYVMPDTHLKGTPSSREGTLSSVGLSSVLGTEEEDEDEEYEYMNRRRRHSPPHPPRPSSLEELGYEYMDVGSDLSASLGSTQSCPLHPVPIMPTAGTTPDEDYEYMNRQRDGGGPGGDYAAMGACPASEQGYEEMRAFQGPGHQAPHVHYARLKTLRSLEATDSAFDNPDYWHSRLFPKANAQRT
assay-details: cell-based or functional assay
One number for each entry, in pM.

Use these answered entries as a reference point.
[
  {
    "binder": "MOR13867 (antibody, human IgG1, kappa, V domains shown, tested as IgG) VH: QVQLVQSGAEVKKPGESLKISCKGSGYSFSNYWIAWVRQMPGKGLEWMGIIYPGQSDTIYSPSFQGQVTISADKSISTAYLQWSSLKASDTAMYYCARVHIIQPPSAWSYNAMDVWGQGTLVTVSS VL: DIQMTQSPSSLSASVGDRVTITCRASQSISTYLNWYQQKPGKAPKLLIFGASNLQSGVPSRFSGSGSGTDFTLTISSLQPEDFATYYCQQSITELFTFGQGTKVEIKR",
    "measurement-kind": "SK-Br-3 pHER3 IC50",
    "numeric-value": 107
  },
  {
    "binder": "MOR13752 (antibody, human IgG1, kappa, V domains shown, tested as IgG) VH: QVQLVQSGAEVKKPGESLKISCKGSGYSFTNYWVAWVRQMPGKGLEWMGIIYPGGSDTIYSPSFQGQVTISADKSISTAYLQWSSLKASDTAMYYCARVHIIQPPSAWSYNAMDVWGQGTLVTVSS VL: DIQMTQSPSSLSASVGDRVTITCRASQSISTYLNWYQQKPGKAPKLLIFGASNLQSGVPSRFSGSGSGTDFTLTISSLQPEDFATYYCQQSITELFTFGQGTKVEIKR",
    "measurement-kind": "SK-Br-3 pHER3 IC50",
    "numeric-value": 1000
  }
]

Answer for every listed entry: what is its SK-Br-3 pHER3 IC50? The entries follow.
1. MOR12925 (antibody, human IgG1, kappa, V domains shown, tested as IgG) VH: QVQLVQSGAEVKKPGESLKISCKGSGYSFSNYWIAWVRQMPGKGLEWMGIIYPGNSDTIYSPSFQGQVTISADKSISTAYLQWSSLKASDTAMYYCARVHIIQPPSAWSYNAMDVWGQGTLVTVSS VL: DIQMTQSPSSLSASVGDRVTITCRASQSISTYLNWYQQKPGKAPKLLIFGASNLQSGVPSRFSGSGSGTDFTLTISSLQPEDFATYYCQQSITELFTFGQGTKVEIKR
2. MOR13754 (antibody, human IgG1, kappa, V domains shown, tested as IgG) VH: QVQLVQSGAEVKKPGESLKISCKGSGYSFTSYWVAWVRQMPGKGLEWMGIIYPGGSDTIYSPSFQGQVTISADKSISTAYLQWSSLKASDTAMYYCARVHIIQPPSAWSYNAMDVWGQGTLVTVSS VL: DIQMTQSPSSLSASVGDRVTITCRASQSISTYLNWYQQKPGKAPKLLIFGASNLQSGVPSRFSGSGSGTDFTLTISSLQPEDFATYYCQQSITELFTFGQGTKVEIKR
3. MOR13871 (antibody, human IgG1, kappa, V domains shown, tested as IgG) VH: QVQLVQSGAEVKKPGESLKISCKGSGYSFSNYWIAWVRQMPGKGLEWMGIIYPGSSDTIYSPSFQGQVTISADKSISTAYLQWSSLKASDTAMYYCARVHIIQPPSAWSYNAMDVWGQGTLVTVSS VL: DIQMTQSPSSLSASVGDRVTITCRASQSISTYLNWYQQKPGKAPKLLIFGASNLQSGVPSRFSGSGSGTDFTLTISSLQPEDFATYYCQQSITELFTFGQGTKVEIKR

Result:
[136, 606, 105]
